Recorded values, source ChEMBL document CHEMBL1152187.

Test system: SF-295
Assay: Growth inhibition of human SF295 cells by sulforhodamine B assay
Type: functional
Recorded measurements of GI50, one per entry
MEASUREMENT_KIND: GI50 (µM)

- COMPOUND_STRUCTURE_STRING: "CCCCCCCCCCCC[C@@H](O)[C@H]1CC[C@H]([C@H](O)CCCCCCCCCC[C@@H](F)CC2=C[C@H](C)OC2=O)O1"
  QUANTITY_UNIT: "µM"
  READOUT_VALUE: 37
- COMPOUND_STRUCTURE_STRING: "CCCCCCCCCCCC[C@@H](O)[C@H]1CC[C@H]([C@H](O)CCCCCCCCCC[C@H](F)CC2=C[C@H](C)OC2=O)O1"
  QUANTITY_UNIT: "µM"
  READOUT_VALUE: 31
- COMPOUND_STRUCTURE_STRING: "CCCCCCCCCCCC[C@@H](O)[C@H]1CC[C@H]([C@H](O)CCCCCCCCCC[C@@H](O)CC2=C[C@H](C)OC2=O)O1"
  QUANTITY_UNIT: "µM"
  READOUT_VALUE: 7.3
- COMPOUND_STRUCTURE_STRING: "CCCCCCCCCCCC[C@@H](O)[C@H]1CC[C@H]([C@H](O)CCCCCCCCCCCCC2=C[C@H](C)OC2=O)O1"
  QUANTITY_UNIT: "µM"
  READOUT_VALUE: 40

====

Test: Growth inhibition of human HBC5 cells by sulforhodamine B assay
Assay type: functional
Listed next: entries and their corresponding GI50.

- COMPOUND_STRUCTURE_STRING: "CCCCCCCCCCCC[C@@H](O)[C@H]1CC[C@H]([C@H](O)CCCCCCCCCC[C@@H](F)CC2=C[C@H](C)OC2=O)O1"
  GI50: "> 100 µM"
- COMPOUND_STRUCTURE_STRING: "CCCCCCCCCCCC[C@@H](O)[C@H]1CC[C@H]([C@H](O)CCCCCCCCCC[C@H](F)CC2=C[C@H](C)OC2=O)O1"
  GI50: "> 100 µM"
- COMPOUND_STRUCTURE_STRING: "CCCCCCCCCCCC[C@@H](O)[C@H]1CC[C@H]([C@H](O)CCCCCCCCCC[C@@H](O)CC2=C[C@H](C)OC2=O)O1"
  GI50: "9.7 µM"
- COMPOUND_STRUCTURE_STRING: "CCCCCCCCCCCC[C@@H](O)[C@H]1CC[C@H]([C@H](O)CCCCCCCCCCCCC2=C[C@H](C)OC2=O)O1"
  GI50: "> 100 µM"

====

The entries below are paired with their reported GI50.
Tested on: HCT-116
Experiment: Growth inhibition of human HCT116 cells by sulforhodamine B assay
Assay type: functional

- COMPOUND: "CCCCCCCCCCCC[C@@H](O)[C@H]1CC[C@H]([C@H](O)CCCCCCCCCC[C@@H](F)CC2=C[C@H](C)OC2=O)O1"
  GI50: "2 µM"
- COMPOUND: "CCCCCCCCCCCC[C@@H](O)[C@H]1CC[C@H]([C@H](O)CCCCCCCCCC[C@@H](O)CC2=C[C@H](C)OC2=O)O1 [MURISOLIN]"
  GI50: "3.7 µM"
- COMPOUND: "CCCCCCCCCCCC[C@@H](O)[C@H]1CC[C@H]([C@H](O)CCCCCCCCCCCCC2=C[C@H](C)OC2=O)O1 [REL-SOLAMIN]"
  GI50: "> 100 µM"
- COMPOUND: "CCCCCCCCCCCC[C@@H](O)[C@H]1CC[C@H]([C@H](O)CCCCCCCCCC[C@H](F)CC2=C[C@H](C)OC2=O)O1"
  GI50: "27 µM"

====

System: SNB-78
Test: Growth inhibition of human SNB-78 cells by sulforhodamine B assay
Format: functional

- COMPOUND_STRUCTURE_STRING: "CCCCCCCCCCCC[C@@H](O)[C@H]1CC[C@H]([C@H](O)CCCCCCCCCC[C@@H](O)CC2=C[C@H](C)OC2=O)O1"
  GI50: "78 µM"
- COMPOUND_STRUCTURE_STRING: "CCCCCCCCCCCC[C@@H](O)[C@H]1CC[C@H]([C@H](O)CCCCCCCCCC[C@H](F)CC2=C[C@H](C)OC2=O)O1"
  GI50: "> 100 µM"
- COMPOUND_STRUCTURE_STRING: "CCCCCCCCCCCC[C@@H](O)[C@H]1CC[C@H]([C@H](O)CCCCCCCCCC[C@@H](F)CC2=C[C@H](C)OC2=O)O1"
  GI50: "> 100 µM"
- COMPOUND_STRUCTURE_STRING: "CCCCCCCCCCCC[C@@H](O)[C@H]1CC[C@H]([C@H](O)CCCCCCCCCCCCC2=C[C@H](C)OC2=O)O1"
  GI50: "> 100 µM"

====

Let's look at some compounds and their measured GI50.
System: OVCAR-8
Assay: Growth inhibition of human OVCAR8 cells by sulforhodamine B assay
Format: functional

- COMPOUND_STRUCTURE_STRING: "CCCCCCCCCCCC[C@@H](O)[C@H]1CC[C@H]([C@H](O)CCCCCCCCCC[C@@H](F)CC2=C[C@H](C)OC2=O)O1"
  QUANTITY_UNIT: "µM"
  PREFIX_OPERATOR: "="
  GI50: 62
- COMPOUND_STRUCTURE_STRING: "CCCCCCCCCCCC[C@@H](O)[C@H]1CC[C@H]([C@H](O)CCCCCCCCCC[C@@H](O)CC2=C[C@H](C)OC2=O)O1"
  QUANTITY_UNIT: "µM"
  PREFIX_OPERATOR: "="
  GI50: 38
- COMPOUND_STRUCTURE_STRING: "CCCCCCCCCCCC[C@@H](O)[C@H]1CC[C@H]([C@H](O)CCCCCCCCCCCCC2=C[C@H](C)OC2=O)O1"
  QUANTITY_UNIT: "µM"
  PREFIX_OPERATOR: ">"
  GI50: 100
- COMPOUND_STRUCTURE_STRING: "CCCCCCCCCCCC[C@@H](O)[C@H]1CC[C@H]([C@H](O)CCCCCCCCCC[C@H](F)CC2=C[C@H](C)OC2=O)O1"
  QUANTITY_UNIT: "µM"
  PREFIX_OPERATOR: ">"
  GI50: 100

====

Test system: OVCAR-5
Assay: Growth inhibition of human OVCAR5 cells by sulforhodamine B assay
Assay type: functional
Measured GI50 of individual entries

- COMPOUND_STRUCTURE_STRING: "CCCCCCCCCCCC[C@@H](O)[C@H]1CC[C@H]([C@H](O)CCCCCCCCCC[C@@H](O)CC2=C[C@H](C)OC2=O)O1"
  GI50: "> 100 µM"
- COMPOUND_STRUCTURE_STRING: "CCCCCCCCCCCC[C@@H](O)[C@H]1CC[C@H]([C@H](O)CCCCCCCCCCCCC2=C[C@H](C)OC2=O)O1"
  GI50: "> 100 µM"
- COMPOUND_STRUCTURE_STRING: "CCCCCCCCCCCC[C@@H](O)[C@H]1CC[C@H]([C@H](O)CCCCCCCCCC[C@H](F)CC2=C[C@H](C)OC2=O)O1"
  GI50: "> 100 µM"
- COMPOUND_STRUCTURE_STRING: "CCCCCCCCCCCC[C@@H](O)[C@H]1CC[C@H]([C@H](O)CCCCCCCCCC[C@@H](F)CC2=C[C@H](C)OC2=O)O1"
  GI50: "> 100 µM"

====

Let's look at some compounds and their measured GI50.
System: St-4
Assay: Growth inhibition of human St-4 cells by sulforhodamine B assay
Format: functional

- COMPOUND_STRUCTURE_STRING: "CCCCCCCCCCCC[C@@H](O)[C@H]1CC[C@H]([C@H](O)CCCCCCCCCC[C@@H](F)CC2=C[C@H](C)OC2=O)O1"
  QUANTITY_UNIT: "µM"
  PREFIX_OPERATOR: "="
  GI50: 74
- COMPOUND_STRUCTURE_STRING: "CCCCCCCCCCCC[C@@H](O)[C@H]1CC[C@H]([C@H](O)CCCCCCCCCCCCC2=C[C@H](C)OC2=O)O1"
  QUANTITY_UNIT: "µM"
  PREFIX_OPERATOR: ">"
  GI50: 100
- COMPOUND_STRUCTURE_STRING: "CCCCCCCCCCCC[C@@H](O)[C@H]1CC[C@H]([C@H](O)CCCCCCCCCC[C@H](F)CC2=C[C@H](C)OC2=O)O1"
  QUANTITY_UNIT: "µM"
  PREFIX_OPERATOR: ">"
  GI50: 100
- COMPOUND_STRUCTURE_STRING: "CCCCCCCCCCCC[C@@H](O)[C@H]1CC[C@H]([C@H](O)CCCCCCCCCC[C@@H](O)CC2=C[C@H](C)OC2=O)O1"
  QUANTITY_UNIT: "µM"
  PREFIX_OPERATOR: "="
  GI50: 41
